assay: Plasma oxytocin concentration by radioimmunoassay after 40 IU intranasal (spray or nebuliser) or 10 IU intravenous oxytocin; type: in vivo, human; settings: male, human, inhaled or intranasal; Spray (40 IU intranasal, standard nasal spray); 57 minutes post-administration (from last treatment offset); plasma, radioimmunoassay after extraction; mean, n = 16 healthy men; read-out: Concentration of plasmatic oxytocin
property_label: level at 0.95 h (pg/mL)
Your answer should be a plain number; it is taken to be in pg/mL.

Given the compound CC[C@H](C)[C@@H]1NC(=O)[C@H](Cc2ccc(O)cc2)NC(=O)[C@@H](N)CSSC[C@@H](C(=O)N2CCC[C@H]2C(=O)N[C@@H](CC(C)C)C(=O)NCC(N)=O)NC(=O)[C@H](CC(N)=O)NC(=O)[C@H](CCC(N)=O)NC1=O [oxytocin] , what is its reported level at 0.95 h?
7.03

---

experiment: Plasma oxytocin concentration by radioimmunoassay after 40 IU intranasal (spray or nebuliser) or 10 IU intravenous oxytocin; format: in vivo, human; conditions: male, human; Intravenous (10 IU infusion over 10 min, 1IU/min); 57 minutes post-administration (from last treatment offset); plasma, radioimmunoassay after extraction; mean, n = 16 healthy men; read-out: Concentration of plasmatic oxytocin
property_label: level at 0.95 h (ng/mL)
Your answer should be a plain number; it is taken to be in ng/mL.

Given the compound `CC[C@H](C)[C@@H]1NC(=O)[C@H](Cc2ccc(O)cc2)NC(=O)[C@@H](N)CSSC[C@@H](C(=O)N2CCC[C@H]2C(=O)N[C@@H](CC(C)C)C(=O)NCC(N)=O)NC(=O)[C@H](CC(N)=O)NC(=O)[C@H](CCC(N)=O)NC1=O` , what is its reported level at 0.95 h?
0.0164
